Reference for the values: paper PMC6895048

# system.under.test: purified human TDO enzyme (Homo sapiens, UniProt P48775)
# Construct: 6xHis (N); made in house; host or cells: Escherichia coli BL21 (DE3) (pET 28a vector)
# Sequence (P48775 whole entry): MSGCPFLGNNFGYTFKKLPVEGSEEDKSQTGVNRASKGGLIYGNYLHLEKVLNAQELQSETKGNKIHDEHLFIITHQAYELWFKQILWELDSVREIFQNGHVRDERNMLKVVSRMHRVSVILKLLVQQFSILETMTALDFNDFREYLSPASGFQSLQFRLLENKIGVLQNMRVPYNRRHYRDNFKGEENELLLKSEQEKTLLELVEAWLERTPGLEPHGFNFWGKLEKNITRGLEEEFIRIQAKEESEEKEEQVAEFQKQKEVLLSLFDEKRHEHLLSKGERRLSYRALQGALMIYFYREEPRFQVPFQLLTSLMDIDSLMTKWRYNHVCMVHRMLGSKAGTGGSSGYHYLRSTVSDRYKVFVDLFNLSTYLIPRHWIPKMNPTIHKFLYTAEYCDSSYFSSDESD
# test: TDO inhibition assay by the spectrometric method
# Format: biochemical
# assay.context: spectrophotometric; 800 nM
observed.property: inhibition at 0.8 µM (%)
A number alone suffices; assume %.

The following compounds have reported results that may help.
* NC(=O)c1n[nH]nc1-c1ccccc1 | 19
* c1ccc(-c2nn[nH]c2-c2ccccc2)cc1 | 19
* NS(=O)(=O)NCCNC(=O)c1n[nH]nc1-c1ccc(F)c(F)c1 | 16
* NS(=O)(=O)NCCNC(=O)c1n[nH]nc1-c1ccc(Cl)c(Cl)c1 | 11

Next compound, please.
## Input Annotate the compound CCOC(=O)c1n[nH]nc1-c1ccccc1 with its measured inhibition at 0.8 µM.
## Output 19

====

In this section we review reported % Of inhibition for TDO enzyme values for a set of molecules.
# system.under.test: TDO enzyme (Homo sapiens)
# Construct: 6xHis (N); made in house; host or cells: Escherichia coli BL21 (DE3) (pET 28a vector)
# test: HPLC based TDO inhibition assay
# Type: biochemical
# assay.context: 4 µM
Response body: numeric value in %, unit text excluded.

Reference set (5 entries):
* NC(=O)c1n[nH]nc1-c1ccc(F)c(F)c1 [Compound 3i] | 18
* CCOC(=O)c1n[nH]nc1-c1ccc(Cl)c(Cl)c1 [Compound 2j] | 49
* NC(=O)c1n[nH]nc1-c1ccc(Cl)c(Cl)c1 [Compound 3j] | 47
* CCOC(=O)c1n[nH]nc1-c1ccc(F)c(F)c1 [Compound 2i] | 65
* O=C(N/C(Cc1ccc(O)cc1)=N\O)c1n[nH]nc1-c1ccc(F)c(F)c1 [Compound 4i] | 50

## Input For the molecule O=C(O)c1n[nH]nc1-c1ccc(F)c(F)c1 [Compound 4a] , report % Of inhibition for TDO enzyme.
## Output 38

====

# inhibition at 4 µM annotations
# system.under.test: IDO1 (Homo sapiens)
# test: Kynurenine assay by HPLC analysis, IDO1
# Assay type: biochemical
# Design: made in house; host or cells: Escherichia coli M15 (pQE30 vector with pREP4 plasmid)
# assay.context: HPLC; 4 µM
Quick reminder: number only, in %, skip the unit.

## Input Report inhibition at 4 µM for NS(=O)(=O)NCCNC(=O)c1n[nH]nc1-c1ccc(F)c(F)c1
## Output 77

## Input Give the reported value of inhibition at 4 µM for this record: NS(=O)(=O)NCCNC(=O)c1n[nH]nc1-c1ccc(Cl)c(Cl)c1
## Output 88

## Input Give me measured inhibition at 4 µM, please, for this molecule: CCOC(=O)c1n[nH]nc1-c1ccccc1
## Output 61

## Input State its inhibition at 4 µM: NC(=O)c1n[nH]nc1-c1ccccc1
## Output 63

====

# system.under.test: IDO1 (Homo sapiens, UniProt P14902)
# Sequence (P14902 whole entry): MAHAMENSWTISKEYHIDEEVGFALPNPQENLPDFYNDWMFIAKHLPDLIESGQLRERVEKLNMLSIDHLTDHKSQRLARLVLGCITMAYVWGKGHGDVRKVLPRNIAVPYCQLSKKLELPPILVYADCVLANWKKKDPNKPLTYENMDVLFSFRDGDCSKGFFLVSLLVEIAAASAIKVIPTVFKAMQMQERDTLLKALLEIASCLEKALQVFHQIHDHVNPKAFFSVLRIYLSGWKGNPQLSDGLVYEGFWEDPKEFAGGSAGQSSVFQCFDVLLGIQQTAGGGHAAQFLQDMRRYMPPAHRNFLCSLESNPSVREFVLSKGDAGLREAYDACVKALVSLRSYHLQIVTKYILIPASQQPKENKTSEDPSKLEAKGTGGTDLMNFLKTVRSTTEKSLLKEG
# test: Circular dichroism analysis of IDO1 enzyme
# Set-up: made in house; host or cells: Escherichia coli M15 (pQE30 vector with pREP4 plasmid)
# assay.context: compound 0.25 µM
observed.property: % of Secondary structural elements, Beta (%)
The reply should contain only the number, in %.

- CCOC(=O)c1n[nH]nc1-c1ccc(F)c(F)c1: 0
- NS(=O)(=O)NCCNC(=O)c1n[nH]nc1-c1ccc(F)c(F)c1: 3.6
- NC(=O)c1n[nH]nc1-c1ccc(F)c(F)c1: 0

## Input Answer with the recorded % of Secondary structural elements, Beta of O=C(N/C(Cc1ccc(O)cc1)=N\O)c1n[nH]nc1-c1ccc(F)c(F)c1 only.
## Output 0.7

====

# system.under.test: IDO1 (Homo sapiens)
# test: Circular dichroism analysis of IDO1 enzyme
# Design: made in house; host or cells: Escherichia coli M15 (pQE30 vector with pREP4 plasmid)
# assay.context: compound 0.25 µM
Recorded measurements of % of Secondary structural elements, Random, one per entry
Give the value in % but do not write % after it.

- NC(=O)c1n[nH]nc1-c1ccc(F)c(F)c1: 35.8
- CCOC(=O)c1n[nH]nc1-c1ccc(F)c(F)c1: 37.9
- NS(=O)(=O)NCCNC(=O)c1n[nH]nc1-c1ccc(F)c(F)c1: 34.3

Please find the next compound below.
## Input # return % of Secondary structural elements, Random of O=C(N/C(Cc1ccc(O)cc1)=N\O)c1n[nH]nc1-c1ccc(F)c(F)c1 (system: IDO1 (Homo sapiens))
## Output 37.6

====

# system.under.test: purified human TDO enzyme (Homo sapiens)
# Construct: 6xHis (N); made in house; host or cells: Escherichia coli BL21 (DE3) (pET 28a vector)
# test: TDO inhibition assay by the spectrometric method
# Assay type: biochemical
# assay.context: spectrophotometric; 4 µM
# Procedure: Both IDO1 and TDO inhibition assays were performed according to the reported procedures[26]–[30],[50],[51]. The solubility of the compounds in water was either moderate or poor. […] In the assay system, the minimum and maximum amount of DMSO was 0.02% and 2%, respectively. […] After that, 2% (w/v) pDMAB was used to quantify the amount of kynurenine formation. The absorbance of the reaction mixture was recorded by UV-Vis spectrophotometer at 480 nm. […]
observed.property: inhibition at 4 µM (%)
Form entry: value (%) — number only.

Examples from the recorded data:
* NC(=O)c1n[nH]nc1-c1ccccc1 | 23
* c1ccc(-c2nn[nH]c2-c2ccccc2)cc1 | 28
* NS(=O)(=O)NCCNC(=O)c1n[nH]nc1-c1ccc(Cl)c(Cl)c1 | 19
* CCOC(=O)c1n[nH]nc1-c1ccccc1 | 23

# context switch: different molecule, same inhibition at 4 µM
## Input Read off the recorded inhibition at 4 µM for NS(=O)(=O)NCCNC(=O)c1n[nH]nc1-c1ccc(F)c(F)c1
## Output 32

====

# system.under.test: IDO1 (Homo sapiens, UniProt P14902)
# test: Kynurenine assay by HPLC analysis, IDO1
# Format: biochemical
# Parameters: made in house; host or cells: Escherichia coli M15 (pQE30 vector with pREP4 plasmid)
# assay.context: HPLC based IDO1 inhibition assay
pIC50: −log10 of the molar value.
Would you please tag the item 1 (yes) when its pIC50 is 7 or above, and 0 (no) when it is below?

Here's what some known entries look like.
- CCOC(=O)c1n[nH]nc1-c1ccc(F)c(F)c1 [Compound 2i]: 0 (no)
- NC(=O)c1n[nH]nc1-c1ccccc1 [Compound 3a]: 0 (no)

Read the next record carefully.
## Input # bool: pIC50 of NS(=O)(=O)NCCNC(=O)c1n[nH]nc1-c1ccc(F)c(F)c1 [Compound 4k] >= 7
## Output 1 (yes)

====

# system.under.test: UniProt P14902
# test: Kynurenine assay by HPLC analysis, IDO1
# Format: biochemical
# Parameters: made in house; host or cells: Escherichia coli M15 (pQE30 vector with pREP4 plasmid)
# assay.context: HPLC; 20 µM
Returns t if the recorded % Of inhibition for IDO1 enzyme is greater than or equal to 80%, and f otherwise.

• NC(=O)c1n[nH]nc1-c1ccc(F)c(F)c1 = t

## Input Has O=C(O)c1n[nH]nc1-c1ccc(F)c(F)c1 a recorded % Of inhibition for IDO1 enzyme greater than or equal to 80%?
## Output f

## Input Please tell me: is the molecule NC(=O)c1n[nH]nc1-c1ccc(Cl)c(Cl)c1 at or over 80% in terms of % Of inhibition for IDO1 enzyme?
## Output t

## Input Could you please find out whether CCOC(=O)c1n[nH]nc1-c1ccc(Cl)c(Cl)c1 has % Of inhibition for IDO1 enzyme that meets 80% or exceeds it?
## Output f

====

# system.under.test: IDO1 (Homo sapiens)
# test: Kynurenine assay by HPLC analysis, IDO1
# Format: biochemical
# Set-up: made in house; host or cells: Escherichia coli M15 (pQE30 vector with pREP4 plasmid)
# assay.context: kynurenine assay
observed.property: IC50

- NS(=O)(=O)NCCNC(=O)c1n[nH]nc1-c1ccc(F)c(F)c1: 60 to 115 nM

## Input Input O=C(N/C(Cc1ccc(O)cc1)=N\O)c1n[nH]nc1-c1ccc(F)c(F)c1 , output reported IC50.
## Output 60 to 115 nM

====

# system.under.test: UniProt P14902
# test: Circular dichroism analysis of IDO1 enzyme
# Parameters: made in house; host or cells: Escherichia coli M15 (pQE30 vector with pREP4 plasmid)
# assay.context: compound 0.5 µM
observed.property: % of Secondary structural elements, Random (%)
State the answer as a number, implicitly in %.

Record excerpt, results attached:
* NC(=O)c1n[nH]nc1-c1ccc(F)c(F)c1 | 36.8
* CCOC(=O)c1n[nH]nc1-c1ccc(F)c(F)c1 | 36.1
* NS(=O)(=O)NCCNC(=O)c1n[nH]nc1-c1ccc(F)c(F)c1 | 31.2

Please turn your attention to the following entry.
## Input Given O=C(N/C(Cc1ccc(O)cc1)=N\O)c1n[nH]nc1-c1ccc(F)c(F)c1 , respond with its % of Secondary structural elements, Random.
## Output 38.1
